System: ACHN
test.summary: NCI tumour cell line growth inhibition, 48 h
The source made the active and inactive calls. Cut-off read from the data, not from the text of the source: active = GI50 up to about 1.1 µM and inactive = higher.
observable: GI50

Use these answered entries as a reference point.
Considering N#Cc1[nH]c(=S)[nH]c1N , its GI50 with ACHN was recorded as > 100 µM (inactive)

GI50 value, target or system ACHN, for COc1ccc(SS(=O)(=O)c2ccc(OC)cc2)cc1 : 18.4 µM (inactive)

Record CCC(=O)O[C@H]1CC[C@H]2[C@@H]3CCC4=C/C(=N/NC(=O)c5cccc6c(=O)c7ccccc7[nH]c56)CC[C@]4(C)[C@H]3CC[C@]12C / ACHN, GI50 recorded as > 25 µM (inactive)

Measured GI50 for this entry COc1c(Cl)cc(Cl)cc1S(=O)O on ACHN: > 100 µM (inactive)

Let me check: O=C(CSCC(=O)N/N=C/c1cc(I)cc(I)c1O)N/N=C/c1cc(I)cc(I)c1O , system ACHN, measured GI50 is 11.9 µM (inactive)

New cases:
GI50 for ACHN with input CC1CC(C)C(C(O)CC2CC(=O)N(c3ccccc3)C(=O)C2)C(O)C1 (stereo not given) equals > 100 µM (inactive)

Field GI50 (ACHN), entry O=C1NC(=S)NC(=O)C1=C/C=C/c1ccc([N+](=O)[O-])cc1 : 18 µM (inactive)

The compound CC(=O)C(I(OS(=O)(=O)c1ccc(C)cc1)c1ccccc1)=P(c1ccccc1)(c1ccccc1)c1ccccc1 on ACHN: GI50 was > 100 µM (inactive)

Observed GI50 on ACHN, entry COCN1C(=O)[C@@H]2CCCN2C(=O)c2cc([N+](=O)[O-])ccc21 , equals 53.1 µM (inactive)

---

Tested on: HCT-116
test.summary: NCI tumour cell line growth inhibition, 48 h
Calls of active or inactive are those of the source. Cut-off read from the data, not from the text of the source: active = GI50 up to about 1.1 µM and inactive = higher.
Write down one outcome, taken from true (1) for active, false (0) for inactive

# fetch the recorded call for CCOP(=O)(CN1CCNCCNCC1)OCC here
false (0)

How was Cc1ccc2nc(-c3ccc(N4C(=O)C(Cl)C4c4ccc(Cl)cc4)cc3)sc2c1 (configuration not stated) classified in this test?
false (0)

Others:
For CCOC(=O)c1c(C)nc2c(c1-c1cn(-c3ccccc3)nc1-c1ccccc1)C(=O)c1ccccc1-2 , what call appears in the results of this test?
false (0)

// outcome(item) with item = CSC1=NC(C(N)=O)C(N)N1C (configuration not stated)
false (0)

Dear colleague, could you share the recorded outcome for O=c1cc(N2CCCC2)[nH]c(=O)n1Cc1ccccc1 when you have a moment?
false (0)

---

Tested on: COLO 205
test.summary: NCI tumour cell line growth inhibition, 48 h
The source made the active and inactive calls. Rule as the data show it: active = GI50 up to about 1.1 µM and inactive = higher.
observable: GI50

Reference set, count: 5
Lab book: GI50 of CC(C)=CCC/C(C)=C/CC/C(C)=C/CSc1ccccc1C(=O)O [SALIRASIB] noted as 23.6 µM (inactive)

GI50 reading for O=CNNC(=O)Nc1ccc(Cl)cc1 : > 100 µM (inactive)

Looking up CCOC(=O)Cc1nc2ccccc2s1 , I see its GI50 listed as 38.6 µM (inactive)

Data point: c1ccc(C2CC(N3CCOCC3)=Nc3ccccc3N2)cc1 (stereo not given) ; GI50 = > 100 µM (inactive)

Entry CN1C(=O)C(=O)N2c3ccc(Cl)cc3C3(c4ccccc4)N=CC12O3 (stereo not given) ; GI50 = 4.02 µM (inactive)

More entries:
Documented GI50 of CCN(CC)CCCNc1ccc([N+](=O)[O-])c2nc3ccc(OC)cc3c(N)c12 : 1.34 µM (inactive)

Entry CS(=O)(=O)c1ccc(-c2cc(-c3ccc(S(C)(=O)=O)cc3)[n+](-c3cc(-c4ccccc4)c([O-])c(-c4ccccc4)c3)c(-c3ccc(S(C)(=O)=O)cc3)c2)cc1 — recorded GI50 = > 100 µM (inactive)

Form: compound = COc1cccc(CC(C)N)c1 (stereo not given) ; GI50 = > 100 µM (inactive)

Just so you know, measured GI50 for CCOP(=O)(C=C=C1CCC2[C@@H]3CCc4cc(OC)ccc4C3CC[C@]12C)OCC (stereo not given in full) came out at 10.5 µM (inactive)

GI50 reported for this compound O=c1c2cc(Cl)ccc2[nH]c2cc(O)cc(O)c12 : > 10 µM (inactive)

Values were extracted from ChEMBL document CHEMBL1201862.
